Tested on: PKC mediated IL-2 production
Protocol summary: IL-2 ELISA, human primary T cell, anti CD3+CD28+
Assay type: cell-based
Test settings: Homo sapiens, T-cell, 24 h, human primary T cells stimulated with αCD3 and αCD28, 24 hours
pEC50: −log10 of the molar value.
Measure name: pEC50

Known results for compounds:
Compound | Study system | pEC50
Cn1nnn(-c2cc(Nc3ncc(F)c(N[C@@H]4C[C@@H]5CCCN5C(C)(C)C4)n3)c(F)cc2OCC(N)=O)c1=O | PKC mediated IL-2 production | 6.30 to 7.00
CC1(C)C[C@@H](Nc2nc(Nc3cc(-n4cnnn4)c(C4CC4)cc3F)ncc2F)C[C@@H]2CC(F)(F)CN21 | PKC mediated IL-2 production | 5.00 to 6.00
CCc1cc(F)c(Nc2ncc(F)c(N[C@@H]3C[C@@H]4CCCN4C(C)(C)C3)n2)cc1-n1nnn(C)c1=O | PKC mediated IL-2 production | > 7.00
Fc1cc(C2CC2)c(-n2cnnn2)cc1Nc1ncc(F)c(NC2CCN3CCCC3C2)n1 (racemic) | PKC mediated IL-2 production | 6.30 to 7.00
COc1cc(Nc2ncc(F)c(N[C@@H]3C[C@@H]4CCCN4C(C)(C)C3)n2)ccc1OCCO | PKC mediated IL-2 production | < 5.00

I'm hoping you can list pEC50 for every compound here, please.
1. C[C@@H](CO)Oc1ccc(Nc2ncc(F)c(N[C@@H]3C[C@@H]4CCCN4C(C)(C)C3)n2)cc1-n1nnn(C)c1=O
2. CC1(C)C[C@H](Nc2nc(Nc3ccc(NCC(O)CCl)c(C(F)(F)F)c3)ncc2F)C[C@@H]2CCCN21 (stereo partly shown)

Solution:
1. > 7.00
2. 6.30 to 7.00

Values from patent US9682976B2
